Would you kindly list TGI for each of these compounds?
Test system: CAKI-1 renal
method: NCI tumour cell line growth inhibition, 48 h

Before answering, review these 2 worked examples.
CCOC(=O)c1c(SC(=O)c2ccc(Cl)cc2)n(-c2ccccc2)c(=S)n(-c2ccccc2)c1=O; > 100 µM
COC1OC(C)/C(=N/O)C2OC(C)(C)OC12 (stereo not drawn); > 100 µM

Let us move to another entry and its TGI.
Enquiry: Look up TGI: COC(=O)C1=C(O)c2cc(OC)c(OC)c(OC)c2C(c2ccc3c(c2)OCO3)[C@@H]1C(=O)OC (stereo partly drawn)
Return: > 100 µM

* * *

Test system: SK-MEL-2 melanoma
method: NCI tumour cell line growth inhibition, 48 h
readout_name: TGI

# annotated cases, reported TGI shown
CNCC(SC)c1ccc(O)c(O)c1 (stereo unspecified); > 100 µM
CCOC(=N)CC(=O)Nc1ccccc1CC; > 100 µM
CN(C)CCN=c1nc2c(c(N)n1-c1ccccc1)c(=S)n(-c1ccccc1)c(=S)n2-c1ccccc1; 3.4 µM
C=C1C(=O)OC2C[C@@]3(C)CCCC(=C)C3CC12 (stereo partly specified); 12.7 µM
O=[N+]([O-])/C(Cl)=C(\NCCO)C(Cl)=C(Cl)Cl; > 100 µM

List reported TGI for each of these molecules:
1. CC(C)(C)N=C1C(=O)C2(C)CCC1C2(C)C (stereo unspecified)
2. Oc1ccc(Nc2nc(Cl)c3[nH]cnc3n2)cc1

Return:
["> 100 µM", "87.3 µM"]
